Entry source: PubChem BioAssay (Tox21)

target: Acetylcholinesterase (Homo sapiens); test: Acetylcholinesterase (AChE) small molecule antagonists: enzyme-based qHTS assay with human liver microsomes (AID 1347399); conditions: qHTS inhibition; series mostly up to 115 µM; further: nearly all actives have a fitted effect of over 60% in size
Activity calls are given as the source filed them. The call rests on the fitted dose curve.
assay.readout: outcome

CCC(=O)OC(C)(C)C1CC=C(C)CC1 (stereo not given) ... inactive
CN(Cc1cnc2nc(N)nc(N)c2n1)c1ccc(C(=O)N[C@@H](CCC(=O)O)C(=O)O)cc1 ... inactive
Brc1cc(Oc2cc(Br)c(Br)c(Br)c2Br)c(Br)c(Br)c1Br ... inactive
Cc1cccc(C)c1OCC(=O)N[C@@H](Cc1ccccc1)[C@@H](O)C[C@H](Cc1ccccc1)NC(=O)[C@H](C(C)C)N1CCCNC1=O ... inactive
O=C1OC(=O)C2CC=CCC12 (stereo not given) ... inactive
Cc1cc(N)no1 ... inactive
Cc1ccc(Cl)c(Nc2ccccc2C(=O)O)c1Cl ... inactive
CO/N=C(/C(=O)N[C@@H]1C(=O)N2C(C(=O)[O-])=C(C[n+]3ccn4ncccc43)CS[C@H]12)c1nsc(N)n1 ... inactive
OCC#CCO ... inactive
CCOC(=O)Oc1ccc(CCNC(=O)[C@H](CCSC)NC(C)=O)cc1OC(=O)OCC ... inactive
CCC(=O)C1CC(C(C)C)CC=C1C (stereo not given) ... inactive
Cc1c(C(=O)c2c[nH]n(C)c2=O)ccc(S(C)(=O)=O)c1C1=NOCC1 ... inactive
Cc1nnc(NS(=O)(=O)c2ccc(N)cc2)s1 ... inactive
O=C1NCN(c2ccccc2)C12CCN(CCCC(c1ccc(F)cc1)c1ccc(F)cc1)CC2 ... inactive
COc1ccc2cc1Oc1cc3c(cc1OC)CC[N+](C)(C)[C@H]3Cc1ccc(cc1)Oc1c(OC)c(OC)cc3c1[C@@H](C2)[N+](C)(C)CC3 ... inactive
CC(C)(O)c1ccc(CNC(=O)c2cccnc2Oc2ccc3nonc3c2)cc1 ... inactive
CC(C=O)c1ccccc1 (stereo not given) ... inactive
CC1C(C)(C)C2=C(C(=O)CCC2)C1(C)C (stereo not given) ... inactive
CCCCOC(=O)c1ccccc1C(=O)OCC(CC)CCCC (stereo not given) ... inactive
OC/C=C/c1ccccc1 ... inactive
C#CC1(O)CC[C@H]2[C@@H]3CCC4=CCCC[C@@H]4[C@H]3CC[C@@]21C (stereo not given in full) ... inactive
CCOC(=O)C(C)(C)Oc1ccc(Cl)cc1 ... inactive
O=S(=O)(O)c1ccc2nc(-c3ccccc3)[nH]c2c1 ... inactive
Nc1cccc(N)n1 ... inactive
CC(=O)O[C@@H]1C(=O)O[C@@H]2[C@H]1OC(=O)[C@@H]2OC(C)=O ... inactive
OCCNCCO ... inactive
CC(C)=CC(=O)C=C(C)C ... inactive
CC(=O)c1c(C)c([N+](=O)[O-])c(C(C)(C)C)c([N+](=O)[O-])c1C ... inactive
O=C(Nc1cccc(C(F)(F)F)c1)c1cc(Br)cc(Br)c1O ... inactive
CCC(O)OCCCOC (stereo not given) ... inactive
Cc1oc(=O)oc1CN1CCN(c2cc3c(cc2F)c(=O)c(C(=O)O)c2n3C(C)S2)CC1 (stereo not given) ... inactive
CSc1ccc(Cl)cc1 ... inactive
COc1ccccc1OCC1CNC(=O)O1 (stereo not given) ... inactive
CCOc1ccccc1C(N)=O ... inactive
CCN(CC#N)c1cccc(C)c1 ... inactive
OCc1c2ccccc2cc2ccccc12 ... inactive
Cc1ccc(Br)cc1 ... inactive
Oc1ccc(Cc2ccccc2O)cc1 ... inactive
Cc1cc(N)n(-c2ccccc2)n1 ... inactive
CCN1CCCC(OC(=O)C(c2ccccc2)c2ccccc2)C1 (stereo not given) ... inactive
O=S(=O)(O)c1ccc(O)cc1 ... inactive
CC(C)CCCCCCCOC(=O)c1ccc(C(=O)OCCCCCCCC(C)C)c(C(=O)OCCCCCCCC(C)C)c1 ... inactive
Cc1cc(C(C)(C)C)c(O)c(C(C)(C)C)c1 ... inactive
O=[N+]([O-])c1ccccc1CCO ... inactive
CC(=O)/C=C/C1C(C)=CCC(C)C1(C)C (stereo not given) ... inactive
COc1cc2c(cc1OC)[C@@H]1CC(=O)[C@@H](CC(C)C)CN1CC2 ... inactive
CC/C(=C\C(=N/O)C(N)=O)C(C)[N+](=O)[O-] (stereo not given) ... inactive
O=C1OC2(c3ccccc31)c1cc(Br)c(O)c(Br)c1Oc1c2cc(Br)c(O)c1Br ... inactive
CCCCCCCCCCCCCC ... inactive
C=C/C(C)=C/C/C=C(\C)CCC=C(C)C ... inactive
